Consider the following Ki values measured on Vasopressin V1a receptor (Homo sapiens).
Sequence (P37288 whole entry): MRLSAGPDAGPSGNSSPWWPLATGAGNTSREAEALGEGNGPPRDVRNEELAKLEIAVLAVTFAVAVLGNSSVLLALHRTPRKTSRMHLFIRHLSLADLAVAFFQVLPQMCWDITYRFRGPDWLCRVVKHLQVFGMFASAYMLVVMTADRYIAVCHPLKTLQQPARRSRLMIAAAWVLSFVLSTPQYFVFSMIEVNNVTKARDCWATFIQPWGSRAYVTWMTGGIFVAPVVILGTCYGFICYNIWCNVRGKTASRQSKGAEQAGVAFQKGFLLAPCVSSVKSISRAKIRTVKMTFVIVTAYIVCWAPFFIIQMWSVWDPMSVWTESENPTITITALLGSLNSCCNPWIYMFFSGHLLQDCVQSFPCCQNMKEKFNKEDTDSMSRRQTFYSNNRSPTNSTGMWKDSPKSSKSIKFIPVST
Measurement label: Ki (nM)

[[record]]
molecule = "Cc1ccccc1C(=O)Nc1ccc(C(=O)N2CCCSc3c(C)cccc32)cc1"
test_value = 48


(I) Cc1ccccc1C(=O)Nc1ccc(C(=O)N2CCC[S@@+]([O-])c3ccccc32)cc1 (stereo in doubt; (-))
(II) Cc1ccccc1C(=O)Nc1ccc(C(=O)N2CCCSc3ccccc32)cc1
(III) Cc1ccccc1C(=O)Nc1ccc(C(=O)N2CCC[S+]([O-])c3ccccc32)cc1 (racemic)
Query: Provide the items ranked by increasing Ki. Reply: labels, ordered per the request.
Result: II, I, III

* * *

- System tested: Vasopressin V2 receptor (Homo sapiens, UniProt P30518)
- Sequence (P30518 whole entry): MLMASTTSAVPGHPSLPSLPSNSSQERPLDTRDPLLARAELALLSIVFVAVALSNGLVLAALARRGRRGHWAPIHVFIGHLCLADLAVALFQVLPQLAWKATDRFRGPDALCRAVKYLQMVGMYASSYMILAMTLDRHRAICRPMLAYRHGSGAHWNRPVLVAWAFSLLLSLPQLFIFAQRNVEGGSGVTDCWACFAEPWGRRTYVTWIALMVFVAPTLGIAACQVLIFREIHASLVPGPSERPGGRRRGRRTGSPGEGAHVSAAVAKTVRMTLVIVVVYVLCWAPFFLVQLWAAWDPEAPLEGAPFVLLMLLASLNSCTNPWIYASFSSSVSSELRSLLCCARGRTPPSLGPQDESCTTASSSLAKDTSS
- Protocol text: Displacement of [3H]-(Arg8)-vasopressin from human vasopressin V2 receptor transfected in CHO cell membranes at 10 uM relative to control
Measurement label: inhibition (%)

Below are worked cases with known answers.
[[record]]
compound = "Cc1ccccc1C(=O)Nc1ccc(C(=O)N2CCC[S@@+]([O-])c3c(C)cccc32)cc1 (stereo in doubt; (-))"
measurement_label = "inhibition"
test_value = 0

[[record]]
compound = "Cc1ccccc1C(=O)Nc1ccc(C(=O)N2CCC[S+]([O-])c3c(C)cccc32)cc1 (racemic)"
measurement_label = "inhibition"
test_value = 34


(P) Cc1ccccc1C(=O)Nc1ccc(C(=O)N2CCC[S@@+]([O-])c3cccc(C)c32)cc1 (racemic)
(Q) Cc1ccccc1C(=O)Nc1ccc(C(=O)N2CCC[S@@+]([O-])c3c(C)cccc32)cc1 (stereo in doubt; (+))
Query: Quick check, higher inhibition between P and Q ? Respond using the label that marks the chosen record.
Result: Q
(Q: 48%, P: 22%)
